Data provenance is BindingDB's records for doi:10.1111/cbdd.12161.

# tested.system: Induced myeloid leukemia cell differentiation protein Mcl-1 [172-327] (Homo sapiens, UniProt Q07820)
# Construct: 172-327
# Sequence (Q07820 172-327): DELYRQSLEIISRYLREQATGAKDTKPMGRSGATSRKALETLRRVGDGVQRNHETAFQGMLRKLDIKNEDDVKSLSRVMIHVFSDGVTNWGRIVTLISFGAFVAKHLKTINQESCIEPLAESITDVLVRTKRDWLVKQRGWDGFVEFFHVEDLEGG
# protocol: ITC experiments
# experimental.setup: pH 8; 25 °C
Answer each item with its documented Kd.
Report as a plain number; the unit nM is understood.

Q: Quick one: give measured Kd for O=C1c2ccccc2C(=O)c2cc(O)c(O)cc21
Ans: 1850

Q: Please look at this molecule and report its Kd: Cc1ccc(Sc2ccc3c(c2)C(=O)c2cc(O)c(O)cc2C3=O)cc1
Ans: 950

Q: Indicate its recorded Kd; the molecule in question is O=C1c2ccc(Sc3ccccc3)cc2C(=O)c2cc(O)c(O)cc21
Ans: 1470

Q: Using the record for CC(C)c1ccc(Sc2ccc3c(c2)C(=O)c2cc(O)c(O)cc2C3=O)cc1 , state its measured Kd.
Ans: 238

Q: Give reported Kd value for O=C1c2ccc(Br)cc2C(=O)c2cc(O)c(O)cc21
Ans: 1840
